B1: tRNA (parent)
chain: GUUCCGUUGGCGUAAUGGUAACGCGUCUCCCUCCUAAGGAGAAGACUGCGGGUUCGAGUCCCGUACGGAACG

Variants of: B1
Assay: yeast fitness relative to wild type (ratio to wild type); higher = fitter; tRNA-Arg(CCU), competitive growth, 37 C, YPD
This sample holds only a part of the variants without activity.
Listed below: yeast fitness values for each entry.
MEASURED QUANTITY: yeast fitness

1) GCUCCGUUGGCGUAAUGGUAACGCGUCUCCCUCCUAAGGAGAAGACUGCGGGUUCGAGUCCCGUACGGAGCG [U2C A70G]
0.945
2) GUUCCGUUGGCGUAAUGAUAACGCAUCUCCUUCCUAAGGAGAAGACUGCGGGUUCGAGUCCCGUACGGAACG [G18A G25A C31U]
0.63
3) GUUCGGUUGGUGUAAUGGUAACGCCUCUCCCUCCUAAGGAGAAGACUGCGGGUUCGAGUCCCGUACGGAACG [C5G C11U G25C]
0.571
4) GUUCCGUUGGCGUAAUGGUAACGCGUCGCCCUCCUAAGGCGGAGACUGCGGGUUCGAGUCCCGUACGGCACG [U28G A40C A42G A69C]
0.808
5) GUUCCGUUGGGGUAAUGGUUACGCGUCCCCCUCCUACGGAGAAGACUGGGGGUUCGAGUCCCGUACGGAACG [C11G A20U U28C A37C C49G]
0.611
6) GUUCAGUUGGCGUAAUGGUAACGCGUCUCCCUCCUAAGGAGAAGACUGCGGGUUCGUGUCCCGUACGGAACG [C5A A57U]
0.669
7) GUUCCGUUGGCGUAAUGGUAACGCGUCUCCCUCCUAAGGAGGAGACUGCGGGUUCGAGCCUCGUACGGAACG [A42G U59C C61U]
0.502
8) GUUCCCUUGGCGUAAUGGUAACGCGUCUGUCUCCUAAGGAGAAGACUGCGCGUUCGAGUCCCGUAAGGAACG [G6C C29G C30U G51C C66A]
0.686
9) GUUCCGUUGGCGUAAUGGUAACGCGUCUCCAUCCUAAGGAGAAGAUUGCGGGUUCGAGUCCCGUACGGAACG [C31A C46U]
0.947
10) GUUCCGUUGGCGUAAUGGUACCGCGACUCCCUCCUAAGGUGAAGACUGCGGGUUCGAGUCCCGUACGGAACG [A21C U26A A40U]
0.534
11) GUUCCGUUGGCGUAAUGCUAACGCGUCUCCCUCCUAAGGAGAAGACUGCGGGUUGGAGUCCCGUACGGAACG [G18C C55G]
0.585
12) GUUCCGUUGGCGUAAUGGUAACGCGUCUCCCUCCUAAGGAGAAGACUGCGGGUCCGAGGCCCGUACGGAGCG [U54C U59G A70G]
0.615
13) GUUCCGUUGGCGUAAAGGUAACGCGUCUCCCUCCUAGGGAGAAGACUGCGGGUUCGAGUCCCGUACGGAACG [U16A A37G]
0.79
14) GUUCCGUUGGCGUAAUGAUAACGCGUCUCCCUCCUAAGGAGAAGACUGCAGGUUCGAGUCCCGUACGGAACG [G18A G50A]
0.853
15) GUUCCGUUGGCGUAAUGGUAACGCGUAUCCCUCCUAAGGAGAAGACUGCGGGUUCCAGUCCCGUACGGAACG [C27A G56C]
0.627
16) GUUCCAUUGGCGUAAUGGUAACGCGUCUCCCUCCUAAGGGGGAGACUGCGGGUUCGAGCCCCGUACGGAACG [G6A A40G A42G U59C]
0.675
17) GUUCCGUUGGCGUAAUGGUAACGCGUCUCCCUCCUAAGGAGAACACUGCGGGUACGAGUCACGUACGGAACG [G44C U54A C61A]
0.561
18) GUUCCGUUGGCGUACUGGUAACGCGUCUCCCACCUAAGGAGAAGACUGCGGGUUCGAGUCCCGUACGGAACG [A15C U32A]
0.595
19) GUUCGGUUGGCGUAAUGGUAACGCGUCUCCCUCCUAAGGAGAAGACUGCGGGUUCGAGUCCCGUACGGACCG [C5G A70C]
0.905
20) GUUCCGUUGGCGUAAUGGUAACGCGUCUCCCUCCUAAGGAGAAUACUGCGGGUUCGAGUCCCGUACGGAACG [G44U]
1.01
21) GUUCCGUUGGCGUCAUGGUAACGCGUCUCCCUCCUAAGGAGAAGACUGUGGGUUCGAGUCCCGUACGGAACG [A14C C49U]
0.715

Values compiled from the RNAGym collection of RNA variant scans (doi:10.1126/science.aae0568).
